studySystem: T1, recombinant His-tagged cynomolgus PD-1 (Acro Biosystems) (cynomolgus, UniProt B0LAJ3 25-170)
T1 construct: His-tagged; also called Cyno PD-1; not shown: His tag (and any linker) of the Acro Biosystems product
T1 sequence (B0LAJ3 entry or part of it limits assumed): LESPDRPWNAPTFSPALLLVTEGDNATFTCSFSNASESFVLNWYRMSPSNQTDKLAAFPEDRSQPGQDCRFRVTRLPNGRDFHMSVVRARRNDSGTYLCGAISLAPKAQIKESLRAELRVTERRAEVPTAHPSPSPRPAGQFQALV
procedureText: SPR Carterra LSA;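 note: antibodies or fusion proteins amine-coupled on an HC30M chip, soluble His-tagged human or cynomolgus PD-1 titrated over them, non-regenerative kinetics, constants fitted from titration curves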
This listing pairs binders with measured koff.
Provide only the numeric value, understood in s⁻¹.

Example entries begin here.
Entry OMC476pG10-hIgG4 (antibody, V domains shown) VH: DVQLVESGGGVVRPGGSLRLSCAASGFTFSIYAMSWVRQAPGEGLEWVSHISASGGSTYYADSVKGRFAISRDNSKNTLYLQMNSLRAEDTAVYYCTTNLGSDYWGLGTLVTVSS VL: QSVLTQPPSASGTPGQRVTISCSGSYSDIGTNYVYWYQQLPGTAPKLLIFATDRRPSGVPDRFSGSKSGTSASLAISGLQSEDEADYYCGTWDDSLNVWVFGGGTKLTVLG : reported koff = ?
0.06

What about OMC476pH10-hIgG4 (antibody, V domains shown) VH: DVQLVESGGGVVRPGGSLRLSCAASGFTFSIYAVSWVRQAPGEGLEWVSHISASGGSTYYADSVKGRFAISRDNSKNTLYLQMNSLRAEDTAVYYCTTNLGSDYWGLGTLVTVSS VL: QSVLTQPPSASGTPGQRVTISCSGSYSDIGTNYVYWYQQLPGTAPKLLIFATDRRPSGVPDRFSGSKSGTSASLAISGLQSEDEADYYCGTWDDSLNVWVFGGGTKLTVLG ?
0.059

Further cases:
Entry G12-hIgG4 (antibody, V domains shown) VH: DSLVESGGGLVQPGGSLRLSCAASGFTFDISAMSWVRQAPGKGLEWVSTISGSAYSTYYADSVKGRFTISRDNSKSTLYLQMNSLRAEDTAVYYCAREIFSDYWGLGTLVTVSS VL: QSVLTQPPSASGTPGQRVTISCSGSTSNIGRESVYWYQQLPGTAPKLLIYLNSQRPSGVPDRFSGSKSGTSASLAISGLQSEDVADYYCGTWDDSLNGWVFGGGTKLTVLG : reported koff = ?
0.065
